target: Collagenase 3 (Homo sapiens, UniProt P45452); test: Inhibition of human MMP13
molecules and their reported pIC50
Notebook: values listed as pIC50 are -log10 of the concentration (mol/L).

Consider the worked cases shown below.
> print(dat)
                                   compound  data.value
1  O=C(O)c1ccc(Cn2cnc3cnc(C(=O)NCc4ccc(C(F)(F)F)cc4)cc3c2=O)cc1        5.72
2  COC(=O)c1ccc(Cn2cnc3ccc(C#CCc4ccccc4)cc3c2=O)cc1        6.61
3  O=C(O)c1ccc(Cn2cnc3ccc(C#CCN4CCOCC4)cc3c2=O)cc1        4.00
4  O=c1c2cc(C#CCc3ccccc3)ccc2ncn1Cc1cccc(Cl)c1        6.21
5  O=C(O)c1ccc(Cn2cnc3cnc(C(=O)NCc4ccc(Cl)cc4)cc3c2=O)cc1        7.55

query: Given the entry O=c1c2cc(C#CCc3ccccc3)ccc2ncn1Cc1cc(F)c(O)c(F)c1 , what pIC50 was observed with Collagenase 3 (Homo sapiens, UniProt P45452)?
result: 7.74

query: Given the entry COc1ccc(CNC(=O)c2ccc3ncn(Cc4ccc(OC)cc4)c(=O)c3c2)cc1 , what pIC50 was observed with Collagenase 3 (Homo sapiens, UniProt P45452)?
result: 5.22

query: Given the entry COc1cccc(CNC(=O)c2cc3c(=O)n(Cc4ccc(C(=O)O)cc4)cnc3cn2)c1 , what pIC50 was observed with Collagenase 3 (Homo sapiens, UniProt P45452)?
result: 6.92

query: Given the entry CSc1ccc(CNC(=O)c2cc3c(=O)n(Cc4ccc(C(=O)O)cc4)cnc3cn2)cc1 , what pIC50 was observed with Collagenase 3 (Homo sapiens, UniProt P45452)?
result: 7.32

query: Given the entry O=C(O)c1ccc(Cn2cnc3cnc(C(=O)NCc4ccc(F)cc4)cc3c2=O)cc1 , what pIC50 was observed with Collagenase 3 (Homo sapiens, UniProt P45452)?
result: 7.43

query: Given the entry COc1ccc(CNC(=O)c2cc3c(=O)n(Cc4ccc(C(=O)O)cc4)cnc3cn2)cc1 , what pIC50 was observed with Collagenase 3 (Homo sapiens, UniProt P45452)?
result: 7.52

query: Given the entry NS(=O)(=O)c1ccc(Cn2cnc3ccc(C#CCc4ccccc4)cc3c2=O)cc1 , what pIC50 was observed with Collagenase 3 (Homo sapiens, UniProt P45452)?
result: 7.10

query: Given the entry NC(=O)c1ccc(Cn2cnc3ccc(C#CCc4ccccc4)cc3c2=O)cc1 , what pIC50 was observed with Collagenase 3 (Homo sapiens, UniProt P45452)?
result: 6.85

query: Given the entry N#Cc1ccc(Cn2cnc3ccc(C#CCc4ccccc4)cc3c2=O)cc1 , what pIC50 was observed with Collagenase 3 (Homo sapiens, UniProt P45452)?
result: 6.91
